Origin of the recorded values: ChEMBL document CHEMBL4368920

target: Protein kinase C theta type (Homo sapiens, UniProt Q04759); experiment: Inhibition of PKCtheta in human Jurkat cells assessed as reduction in IL2 production after 14 hrs by luciferase reporter gene assay; format: cell-based
Sequence (Q04759 whole entry): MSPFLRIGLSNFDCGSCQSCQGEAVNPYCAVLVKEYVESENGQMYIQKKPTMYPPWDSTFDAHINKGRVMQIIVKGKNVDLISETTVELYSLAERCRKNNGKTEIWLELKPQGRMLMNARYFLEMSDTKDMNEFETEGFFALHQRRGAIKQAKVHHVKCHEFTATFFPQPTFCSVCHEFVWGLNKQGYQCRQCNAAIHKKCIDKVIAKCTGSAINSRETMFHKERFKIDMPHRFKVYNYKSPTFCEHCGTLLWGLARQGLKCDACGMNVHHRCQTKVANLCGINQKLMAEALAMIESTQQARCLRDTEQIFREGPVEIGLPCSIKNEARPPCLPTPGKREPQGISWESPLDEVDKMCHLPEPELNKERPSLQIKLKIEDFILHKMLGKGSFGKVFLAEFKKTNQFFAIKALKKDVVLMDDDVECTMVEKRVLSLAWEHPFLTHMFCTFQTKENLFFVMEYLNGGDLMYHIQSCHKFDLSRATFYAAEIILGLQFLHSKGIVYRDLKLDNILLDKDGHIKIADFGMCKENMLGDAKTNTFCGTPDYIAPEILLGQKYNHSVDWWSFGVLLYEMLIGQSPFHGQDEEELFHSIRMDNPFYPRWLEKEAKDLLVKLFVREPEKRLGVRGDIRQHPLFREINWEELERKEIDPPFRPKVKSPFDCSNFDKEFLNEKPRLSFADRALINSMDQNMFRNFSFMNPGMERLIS
pIC50: −log10 of the molar value.
outcome measure: pIC50

Reference set, count: 2
> print(dat)
                                   compound  outcome.measure  value.observed
1  CSc1ccccc1CNc1ncc(C#N)c(NCC23CC4CC(C2)C(NC[C@H]2CC[C@H](O)CC2)C(C4)C3)n1 (stereo not given in full)            pIC50            7.80
2  CS(=O)(=O)c1ncccc1CNc1ncc(C#N)c(NCC23CC4CC(C2)C(NC[C@H]2CC[C@H](O)CC2)C(C4)C3)n1 (stereo not given in full)            pIC50            6.85

[P] CC(C)Sc1ncccc1CNc1ncc(C#N)c(NCC23CC4CC(C2)C(NC[C@H]2CC[C@H](O)CC2)C(C4)C3)n1 (stereo not given in full)
[Q] C[S+]([O-])c1ncccc1CNc1ncc(C#N)c(NCC23CC4CC(C2)C(NC[C@H]2CC[C@H](O)CC2)C(C4)C3)n1 (stereo not given in full)
Please indicate which item has the smaller measured pIC50: P versus Q Your choice should be expressed through its label.
Q
(Q: 6.77, P: 8.52)
